Reported IC50 by item:
Measured Target: human JAK1 (Homo sapiens)
Construct: human JAK1 (a.a. 837-1142); His tag (N); made in house; host or cells: insect cells (baculovirus)
Sequence (P23458 849-1154): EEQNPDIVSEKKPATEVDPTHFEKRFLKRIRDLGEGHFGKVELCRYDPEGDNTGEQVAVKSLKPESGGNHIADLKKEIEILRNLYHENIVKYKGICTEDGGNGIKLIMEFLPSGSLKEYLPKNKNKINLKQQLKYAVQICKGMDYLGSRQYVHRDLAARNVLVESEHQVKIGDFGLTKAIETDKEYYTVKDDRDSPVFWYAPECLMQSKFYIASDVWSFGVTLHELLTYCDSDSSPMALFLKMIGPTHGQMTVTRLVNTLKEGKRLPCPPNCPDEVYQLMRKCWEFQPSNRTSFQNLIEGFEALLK
Assay Remarks: In Vitro JAK Kinase Assay (HTRF, phosphorylation of a biotinylated peptide), JAK1
Assay type: biochemical
Condition Context: Table 4; catalytic domain a.a. 837-1142, assay of Example A

Molecule: CC(CO)c1cc(OC2CCC(N3CC(CC#N)(n4cc(-c5ncnc6[nH]ccc56)cn4)C3)CC2)nc(C(F)(F)F)n1 (single isomer, unassigned) [Example 59a]
IC50: < 10 nM

Per the records, this molecule ( N#CCC1(n2cc(-c3ncnc4[nH]ccc34)cn2)CN([C@H]2CC[C@@H](Oc3cc(CN4CCCCC4)nc(C(F)(F)F)n3)CC2)C1 [Example 30, tris(trifluoroacetate)] ) has IC50 equal to < 10 nM

Recorded result, CCCCN(C)Cc1cc(O[C@H]2CC[C@@H](N3CC(CC#N)(n4cc(-c5ncnc6[nH]ccc56)cn4)C3)CC2)nc(C(F)(F)F)n1.O=C(O)C(F)(F)F.O=C(O)C(F)(F)F.O=C(O)C(F)(F)F [Example 36, tris(trifluoroacetate)] , IC50: < 10 nM

Please fill in: IC50 reported for N#CCC1(n2cc(-c3ncnc4[nH]ccc34)cn2)CN([C@H]2CC[C@@H](Oc3cc(CNCC(O)CO)nc(C(F)(F)F)n3)CC2)C1 (stereo partly drawn) = < 10 nM

IC50 for CNCc1cc(O[C@H]2CC[C@@H](N3CC(CC#N)(n4cc(-c5ncnc6[nH]ccc56)cn4)C3)CC2)nc(C(F)(F)F)n1 [Example 4, tris(trifluoroacetate)] is < 10 nM

Quick note, IC50 for "N#CCC1(n2cc(-c3ncnc4[nH]ccc34)cn2)CN([C@H]2CC[C@@H](Oc3cc(CN4CC(O)C4)nc(C(F)(F)F)n3)CC2)C1" landed at < 10 nM

The reported measurements were obtained from patent US9359358B2.
